UniProtKB P53341 data, read-out pIC50
On this scale, pIC50 is minus log10 of a concentration expressed in M (mol/L).

Some compounds with recorded pIC50:
Case Cc1cccc(NC(=O)c2cc(S(=O)(=O)Nc3ccc(Cl)cc3)c([N+](=O)[O-])cc2Cl)c1 , UniProtKB P53341, pIC50 recorded as 4.61

UniProtKB P53341 assay, compound Cc1c(Cl)cccc1NC(=O)c1cc(S(=O)(=O)Nc2ccc(Cl)cc2)c([N+](=O)[O-])cc1Cl , recorded pIC50 = 4.54

Entry O=C(Nc1ccc(Br)cc1)c1cc(S(=O)(=O)Nc2ccc(Cl)cc2)c([N+](=O)[O-])cc1Cl , UniProtKB P53341 data, pIC50 value: 4.30

***
The reported UniProtKB P53341 pIC50 of Cc1ccc(NC(=O)c2cc(S(=O)(=O)Nc3ccc(Cl)cc3)c([N+](=O)[O-])cc2Cl)cc1 is 4.50

====

# tested on: α-amylase from malt
# procedure details: α-Amylase inhibitory assay
# measurement conditions: in vitro
Hi! Just check whether IC50 is below 20 µM. Below gives 1, equal or above gives -1.

// below: answered compounds
query: Could you please tell me whether IC50 recorded for COc1ccccc1NC(=O)c1cc(S(=O)(=O)Nc2ccc(Cl)cc2)c([N+](=O)[O-])cc1Cl [Compound 5e] is less than 20 µM?
result: -1

query: I wonder whether O=C(Nc1ccccc1Cl)c1cc(S(=O)(=O)Nc2ccc(Cl)cc2)c([N+](=O)[O-])cc1Cl [Compound 5j] has IC50 below 20 µM. Can you tell?
result: -1

query: Answer whether the compound Cc1cccc(NC(=O)c2cc(S(=O)(=O)Nc3ccc(Cl)cc3)c([N+](=O)[O-])cc2Cl)c1 [Compound 5b] has IC50 strictly less than 20 µM
result: 1

query: Does this compound meet the criterion IC50 < 20 µM? Cc1c(NC(=O)c2cc(S(=O)(=O)Nc3ccc(Cl)cc3)c([N+](=O)[O-])cc2Cl)cccc1[N+](=O)[O-] [Compound 5m]
result: 1

query: # check: IC50 < 20 µM for O=C(Nc1cccc(Br)c1)c1cc(S(=O)(=O)Nc2ccc(Cl)cc2)c([N+](=O)[O-])cc1Cl [Compound 5g]
result: 1

***
query: # check: IC50 < 20 µM for CCCCNC(=O)c1cc(S(=O)(=O)Nc2ccc(Cl)cc2)c([N+](=O)[O-])cc1Cl [Compound 5t]
result: -1

query: Hello, I'm reviewing records and need to know if IC50 of Cc1ccc([N+](=O)[O-])cc1NC(=O)c1cc(S(=O)(=O)Nc2ccc(Cl)cc2)c([N+](=O)[O-])cc1Cl [Compound 5o] is below 20 µM. Could you check?
result: 1

====

# tested on: α-amylase from malt
# procedure details: α-Amylase inhibitory assay
# measurement conditions: in vitro
readout name: IC50 (µM)
State the answer as a number, implicitly in µM.

Please review the following examples before continuing.
For O=C(Nc1cccc([N+](=O)[O-])c1)c1cc(S(=O)(=O)Nc2ccc(Cl)cc2)c([N+](=O)[O-])cc1Cl [Compound 5r] the compound record lists IC50 as 15.3

The compound listed as CCCNC(=O)c1cc(S(=O)(=O)Nc2ccc(Cl)cc2)c([N+](=O)[O-])cc1Cl [Compound 5s] has a reported IC50 of 48.1

***
Measured IC50, O=C(NCc1ccco1)c1cc(S(=O)(=O)Nc2ccc(Cl)cc2)c([N+](=O)[O-])cc1Cl [Compound 5u] : 38.2

====

# tested on: α-Glucosidase from Saccharomyces cerevisiae (Saccharomyces cerevisiae, UniProt P53341)
# Sequence (P53341 whole entry): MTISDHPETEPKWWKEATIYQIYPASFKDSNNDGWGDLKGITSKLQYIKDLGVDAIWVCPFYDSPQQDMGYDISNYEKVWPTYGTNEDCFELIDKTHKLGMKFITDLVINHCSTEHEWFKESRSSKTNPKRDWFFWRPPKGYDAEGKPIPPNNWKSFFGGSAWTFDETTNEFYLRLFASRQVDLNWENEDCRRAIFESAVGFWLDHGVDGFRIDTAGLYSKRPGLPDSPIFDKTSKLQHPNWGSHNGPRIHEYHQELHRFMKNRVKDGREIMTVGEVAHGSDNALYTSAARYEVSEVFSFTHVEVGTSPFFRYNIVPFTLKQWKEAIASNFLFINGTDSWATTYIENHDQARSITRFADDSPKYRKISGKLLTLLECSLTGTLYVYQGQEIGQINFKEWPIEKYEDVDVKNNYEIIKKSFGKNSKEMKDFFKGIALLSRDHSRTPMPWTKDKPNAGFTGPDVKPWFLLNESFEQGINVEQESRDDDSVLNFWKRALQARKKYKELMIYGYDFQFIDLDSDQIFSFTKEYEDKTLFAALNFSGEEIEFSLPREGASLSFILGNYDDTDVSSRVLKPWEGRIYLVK
Criterion: IC50 strictly under 40 µM. Met: YES. Not met: NO.

The following molecules have reported results that may help.
query: Given O=C(Nc1ccc([N+](=O)[O-])cc1)c1cc(S(=O)(=O)Nc2ccc(Cl)cc2)c([N+](=O)[O-])cc1Cl [Compound 5q] , is recorded IC50 strictly lower than 40 µM?
result: NO

query: Does the reported IC50 of Cc1cc([N+](=O)[O-])ccc1NC(=O)c1cc(S(=O)(=O)Nc2ccc(Cl)cc2)c([N+](=O)[O-])cc1Cl [Compound 5p] stay below 40 µM?
result: YES

query: Is the reported IC50 for O=C(NCc1ccco1)c1cc(S(=O)(=O)Nc2ccc(Cl)cc2)c([N+](=O)[O-])cc1Cl [Compound 5u] strictly below 40 µM?
result: NO

query: Threshold test, IC50 < 40 µM: O=C(Nc1ccccc1[N+](=O)[O-])c1cc(S(=O)(=O)Nc2ccc(Cl)cc2)c([N+](=O)[O-])cc1Cl [Compound 5k]
result: YES

query: Identify whether the molecule O=C(Nc1ccc([N+](=O)[O-])cc1Cl)c1cc(S(=O)(=O)Nc2ccc(Cl)cc2)c([N+](=O)[O-])cc1Cl [Compound 5n] records IC50 below 40 µM.
result: YES

query: Dear colleague, could you confirm whether IC50 of Cc1ccc([N+](=O)[O-])cc1NC(=O)c1cc(S(=O)(=O)Nc2ccc(Cl)cc2)c([N+](=O)[O-])cc1Cl [Compound 5o] falls below 40 µM? Thanks.
result: YES

query: Confirm or reject: IC50 of O=C(Nc1ccncc1)c1cc(S(=O)(=O)Nc2ccc(Cl)cc2)c([N+](=O)[O-])cc1Cl [Compound 5v] lies strictly below 40 µM
result: NO

query: Hello, I'm reviewing records and need to know if IC50 of COc1ccc(NC(=O)c2cc(S(=O)(=O)Nc3ccc(Cl)cc3)c([N+](=O)[O-])cc2Cl)cc1 [Compound 5d] is below 40 µM. Could you check?
result: YES

***
query: Criterion: IC50 strictly below 40 µM. Is it met by O=C(Nc1ccccc1Cl)c1cc(S(=O)(=O)Nc2ccc(Cl)cc2)c([N+](=O)[O-])cc1Cl [Compound 5j] ?
result: YES

query: Hello, is IC50 of the following molecule strictly smaller than 40 µM? O=C(Nc1cccc([N+](=O)[O-])c1)c1cc(S(=O)(=O)Nc2ccc(Cl)cc2)c([N+](=O)[O-])cc1Cl [Compound 5r]
result: YES

query: Input COc1ccccc1NC(=O)c1cc(S(=O)(=O)Nc2ccc(Cl)cc2)c([N+](=O)[O-])cc1Cl [Compound 5e] ; condition: IC50 strictly below 40 µM. Does it hold?
result: NO
